- system.tested: mMC4R (Mus musculus)
- Sequence (P56450 whole entry): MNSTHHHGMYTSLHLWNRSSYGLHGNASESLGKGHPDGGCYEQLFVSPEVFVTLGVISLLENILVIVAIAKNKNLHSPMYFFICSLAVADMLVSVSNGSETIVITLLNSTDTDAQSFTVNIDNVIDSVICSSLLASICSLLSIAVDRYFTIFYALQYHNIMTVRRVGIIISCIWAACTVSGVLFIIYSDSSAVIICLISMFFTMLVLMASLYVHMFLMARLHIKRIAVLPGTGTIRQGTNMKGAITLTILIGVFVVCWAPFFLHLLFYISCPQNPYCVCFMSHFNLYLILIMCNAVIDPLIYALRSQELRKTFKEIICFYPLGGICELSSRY
- procedure.text: 125I-NDP-MSH competitive binding assay, transfected HEK293 cells, mMC4R
- condition.context: binding IC50 versus control 1 (Asn) or 2 (Dap)
Square brackets hold non-standard residues; d marks the D form. Peptide text beside a SMILES is read from it. Dap = NC[C@H](N)C(=O)O
assay.metric: mMC4R Fold Diff
Reply: number alone, nothing else.

| compound | mMC4R Fold Diff |
| --- | --- |
| C[C@@H]1NC(=O)[C@H](CC(N)=O)NC(=O)[C@H](Cc2ccccc2)NC(=O)[C@H](Cc2ccccc2)NC(=O)[C@H](Cc2c[nH]cn2)NC(=O)[C@@H]2CCCN2C(=O)[C@H]2CCCN2C(=O)[C@H](Cc2ccccc2)NC1=O [ZMK 2-96, c[Pro-His-Phe-Phe-Asn-Ala-Phe-DPro]] (cyclo(PHFFNAF[dP])) | 300 |
| C[C@@H]1NC(=O)[C@H](CN)NC(=O)[C@H](Cc2ccccc2)NC(=O)[C@H](Cc2ccccc2)NC(=O)[C@H](CS)NC(=O)[C@@H]2CCCN2C(=O)[C@H]2CCCN2C(=O)[C@H](Cc2ccccc2)NC1=O [ZMK 3-20, c[Pro-Cys-Phe-Phe-Dap-Ala-Phe-DPro]] (cyclo(PCFF[Dap]AF[dP])) | 5200 |

Looking up C[C@@H]1NC(=O)[C@H](CN)NC(=O)[C@H](Cc2ccccc2)NC(=O)[C@H](Cc2ccccc2)NC(=O)[C@H](Cc2c[nH]cn2)NC(=O)[C@@H]2CCCN2C(=O)[C@H]2CCCN2C(=O)[C@H](Cc2ccccc2)NC1=O [ZMK 2-99, c[Pro-His-Phe-Phe-Dap-Ala-Phe-DPro]] (cyclo(PHFF[Dap]AF[dP])) , I found its mMC4R Fold Diff recorded as 500
